# Tested on: WM-115 cells
# Procedure text: MTT cytotoxicity assay, WM-115
# Type: cell-based, human
# Condition parameters: Homo sapiens, WM-115, 48 h, MTT, 46 h + 2 h incubation
Entries and their IC50 values follow.

{"Compound": "COc1ccc(/C=C2\\COc3ccccc3C2=O)cc1", "Bound operator": "=", "IC50 / µM": 23.5}
{"Compound": "COc1ccc(C2CN=NC23COc2ccccc2C3=O)cc1 (stereo not drawn)", "Bound operator": "=", "IC50 / µM": 75.3}
{"Compound": "COc1cccc(/C=C2/C(=O)c3ccccc3OC2c2ccccc2)c1 (stereo not drawn)", "Bound operator": "=", "IC50 / µM": 16.9}
{"Compound": "O=C1/C(=C/c2ccccc2)COc2ccccc21 [Compound 7, (E)-3-benzylidene-chroman-4-one]", "Bound operator": "=", "IC50 / µM": 12.8}
{"Compound": "O=C1CCOc2ccccc21 [Compound 4-Chromanone, 4-Chromanone, reference compound]", "Bound operator": ">", "IC50 / µM": 1000}
{"Compound": "O=C1/C(=C/c2ccccc2)C(c2ccccc2)Oc2ccccc21 (stereo not drawn) [Compound 5, (E)-3-benzylidene-2-phenylchroman-4-one]", "Bound operator": "=", "IC50 / µM": 47.4}
{"Compound": "COc1ccc(/C=C2/C(=O)c3ccccc3OC2c2ccccc2)cc1 (stereo not drawn)", "Bound operator": "=", "IC50 / µM": 58.1}
{"Compound": "O=C1c2ccccc2OC(c2ccccc2)C12N=NCC2c1ccccc1 (stereo not drawn)", "Bound operator": "=", "IC50 / µM": 57.4}
{"Compound": "O=C1c2ccccc2OCC12N=NCC2c1ccccc1 (stereo not drawn)", "Bound operator": "=", "IC50 / µM": 415}

---

# Test system: HL-60 cells
# Procedure text: MTT cytotoxicity assay, HL-60
# Assay type: cell-based, human
# Condition parameters: MTT, 46 h + 2 h incubation

{"Compound": "N.N.[Cl][Pt][Cl] [Cisplatin, reference compound]", "IC50 (nM)": 800}
{"Compound": "N.N.O=C([O-])C1(C(=O)[O-])CCC1.[Pt+2] [Carboplatin, reference compound]", "IC50 (nM)": 4300}

---

# Procedure text: Red blood cell lysis assay
# Type: cell-based
# Condition parameters: human, 2% red blood cell suspension, 2% RBC suspension, 37 °C, Triton X-100 = 100%, read-out: percentage of hemolysis
Observation type: hemolysis at 1 h

{"Compound": "COc1ccc(C2CN=NC23COc2ccccc2C3=O)cc1 (centres unmarked)", "Result": "≤ 5%"}
{"Compound": "COc1ccc(/C=C2\\COc3ccccc3C2=O)cc1", "Result": "≤ 5%"}

---

# System: COLO-205 cells
# Procedure text: MTT cytotoxicity assay, COLO-205
# Format: cell-based, human
# Condition parameters: Homo sapiens, COLO 205, 48 h, 46 h + 2 h incubation
pIC50: −log10 of the molar value.
Mark criterion met for reported pIC50 of 4 or greater; mark criterion not met for anything smaller.

{"Compound": "O=C1c2ccccc2OCC12N=NCC2c1ccccc1 (stereo not drawn)", "Assigned class": "criterion not met"}
{"Compound": "O=C1CCOc2ccccc21 [Compound 4-Chromanone, 4-Chromanone, reference compound]", "Assigned class": "criterion not met"}
{"Compound": "O=C1c2ccccc2OC(c2ccccc2)C12N=NCC2c1ccccc1 (stereo not drawn)", "Assigned class": "criterion met"}
{"Compound": "COc1ccc(C2CN=NC23COc2ccccc2C3=O)cc1 (stereo not drawn)", "Assigned class": "criterion met"}
{"Compound": "COc1cccc(/C=C2/C(=O)c3ccccc3OC2c2ccccc2)c1 (stereo not drawn)", "Assigned class": "criterion not met"}
{"Compound": "O=C1/C(=C/c2ccccc2)COc2ccccc21 [Compound 7, (E)-3-benzylidene-chroman-4-one]", "Assigned class": "criterion met"}
{"Compound": "COc1ccc(/C=C2/C(=O)c3ccccc3OC2c2ccccc2)cc1 (stereo not drawn)", "Assigned class": "criterion met"}
{"Compound": "COc1ccc(/C=C2\\COc3ccccc3C2=O)cc1", "Assigned class": "criterion not met"}

---

# Test system: WM-115 cells
# Procedure text: MTT cytotoxicity assay, WM-115
# Format: cell-based, human
# Condition parameters: MTT, 46 h + 2 h incubation
pIC50: −log10 of the molar value.
Observation type: pIC50

{"Molecule": "N.N.[Cl][Pt][Cl] [Cisplatin, reference compound]", "Result number": 4.74}
{"Molecule": "N.N.O=C([O-])C1(C(=O)[O-])CCC1.[Pt+2] [Carboplatin, reference compound]", "Result number": 3.37}

---

Entries and their chromatographic logP values follow.
# Procedure text: Lipophilicity (logP) by RP-TLC
# Condition parameters: RP-18 F254S TLC plates
Observation type: chromatographic logP

{"Compound": "COc1cccc(/C=C2/C(=O)c3ccccc3OC2c2ccccc2)c1 (centres unmarked) [Compound 9]", "Result number": 5.83}
{"Compound": "O=C1/C(=C/c2ccccc2)C(c2ccccc2)Oc2ccccc21 (centres unmarked) [Compound 5, (E)-3-benzylidene-2-phenylchroman-4-one]", "Result number": 4.9}
{"Compound": "O=C1c2ccccc2OCC12N=NCC2c1ccccc1 (centres unmarked) [Compound 8]", "Result number": 2.35}
{"Compound": "O=C1CCOc2ccccc21 [Compound 4-Chromanone, 4-Chromanone, reference compound]", "Result number": 2.19}
{"Compound": "O=C1/C(=C/c2ccccc2)COc2ccccc21 [Compound 7, (E)-3-benzylidene-chroman-4-one]", "Result number": 4.23}
{"Compound": "COc1ccc(/C=C2/C(=O)c3ccccc3OC2c2ccccc2)cc1 (centres unmarked) [Compound 1]", "Result number": 4.79}
{"Compound": "COc1ccc(/C=C2\\COc3ccccc3C2=O)cc1 [Compound 3]", "Result number": 4.08}
{"Compound": "O=C1c2ccccc2OC(c2ccccc2)C12N=NCC2c1ccccc1 (centres unmarked) [Compound 6]", "Result number": 5.88}
{"Compound": "CCN(CC)c1ccc(C=C2C(=O)c3ccccc3OC2c2ccccc2)cc1 (centres unmarked) [Compound 11]", "Result number": 5.69}
{"Compound": "COc1ccc(C2CN=NC23COc2ccccc2C3=O)cc1 (centres unmarked) [Compound 4]", "Result number": 4.68}
{"Compound": "CCN(CC)c1ccc(/C=C2\\COc3ccccc3C2=O)cc1 [Compound 12]", "Result number": 3.43}

---

# System: HL-60 cells
# Procedure text: Cell cycle analysis by flow cytometry (propidium iodide)
# Type: cell-based, human
# Condition parameters: Figure S3, HL-60, 1 × IC50 (µM: quercetin 58, 1 3, 7 35, 10 9.4, 11 9, 12 12), mean of n=2
Entries and their cell cycle, G2/M, mean values follow.
Observation type: cell cycle, G2/M, mean

{"Molecule": "O=c1c(O)c(-c2ccc(O)c(O)c2)oc2cc(O)cc(O)c12 [Quercetin, reference compound]", "Target entity": "HL-60 cells", "Observation type": "cell cycle, G2/M, mean", "Result": "49,04%"}
{"Molecule": "O=C1/C(=C/c2ccccc2)COc2ccccc21 [Compound 7, (E)-3-benzylidene-chroman-4-one]", "Target entity": "HL-60 cells", "Observation type": "cell cycle, G2/M, mean", "Result": "26,09%"}
{"Molecule": "COc1ccc(/C=C2/C(=O)c3ccccc3OC2c2ccccc2)cc1 (centres unmarked)", "Target entity": "HL-60 cells", "Observation type": "cell cycle, G2/M, mean", "Result": "53,71%"}
{"Molecule": "CCN(CC)c1ccc(/C=C2\\COc3ccccc3C2=O)cc1", "Target entity": "HL-60 cells", "Observation type": "cell cycle, G2/M, mean", "Result": "52,44%"}
{"Molecule": "CCN(CC)c1ccc(C=C2C(=O)c3ccccc3OC2c2ccccc2)cc1 (centres unmarked)", "Target entity": "HL-60 cells", "Observation type": "cell cycle, G2/M, mean", "Result": "67,76%"}

---

Entries and their cell cycle distribution, G1 values follow.
# Test system: HL-60 cells
# Procedure text: Cell cycle analysis by flow cytometry (propidium iodide)
# Format: cell-based, human
# Condition parameters: HL-60, 20 h, 1 × IC50 (µM: quercetin 58, 2 3, 7 35, 12 12, 11 9, 10 9.4), mean ± SD, n = 2

{"Compound": "CCN(CC)c1ccc(C=C2C(=O)c3ccccc3OC2c2ccccc2)cc1 (stereo not shown)", "Target entity": "HL-60 cells", "Unit info": "%", "cell cycle distribution, G1": 6}
{"Compound": "O=c1c(O)c(-c2ccc(O)c(O)c2)oc2cc(O)cc(O)c12 [Quercetin, reference compound]", "Target entity": "HL-60 cells", "Unit info": "%", "cell cycle distribution, G1": 11.6}
{"Compound": "CCN(CC)c1ccc(/C=C2\\COc3ccccc3C2=O)cc1", "Target entity": "HL-60 cells", "Unit info": "%", "cell cycle distribution, G1": 19.5}
{"Compound": "O=C1/C(=C/c2ccccc2)COc2ccccc21 [Compound 7, (E)-3-benzylidene-chroman-4-one]", "Target entity": "HL-60 cells", "Unit info": "%", "cell cycle distribution, G1": 50.4}
